Source: patent US9040516B2

Molecular target: human neutrophil elastase (Homo sapiens)
Construct: purchased Elastin Products Company
Assay: Inhibitory action against human neutrophil elastase (Test Example 1; fluorogenic substrate MeOSuc-AAPV-AMC, buffer with 2M NaCl, 0.002% Brij-35)
Format: biochemical
Conditions: 37° C., read-out: IC50 value (compound concentration required for 50% inhibition of human neutrophil elastase)
experimentalReadout: IC50 (nM)

(P) CSc1cc(C#N)ccc1-n1nccc1-c1c(C)n(-c2cccc(C(F)(F)F)c2)c(=O)n(C)c1=O
(Q) CC(=O)NCCn1c(=O)c(-c2ccnn2-c2ccc(C#N)cc2)c(C)n(-c2cccc(C(F)(F)F)c2)c1=O
Ask: Smaller IC50 value? Options are P and Q I would appreciate it if you answered with the label of your choice.
Reply: P

(A) Cc1c(-c2ccnn2-c2ccc(C#N)cc2)c(=O)n(CCCCO)c(=O)n1-c1cccc(C(F)(F)F)c1
(B) Cc1c(-c2ccnn2-c2ccc(C#N)cc2)c(=O)n(C)c(=O)n1-c1cccc(Br)c1
Ask: Between item A and item B , which reported IC50 is smaller? Lab note: record the label of whichever item you select.
Reply: A

----------
Biological target: human neutrophil elastase (Homo sapiens, UniProt P08246)
Construct: purchased Elastin Products Company
Sequence (P08246 30-267): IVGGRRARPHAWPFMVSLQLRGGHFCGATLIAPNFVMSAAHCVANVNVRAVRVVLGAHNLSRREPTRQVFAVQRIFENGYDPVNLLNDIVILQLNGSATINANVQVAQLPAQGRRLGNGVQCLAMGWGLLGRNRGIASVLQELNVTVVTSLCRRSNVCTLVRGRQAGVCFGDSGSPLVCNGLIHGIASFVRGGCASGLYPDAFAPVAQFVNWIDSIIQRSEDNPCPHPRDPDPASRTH
Assay: Inhibitory action against human neutrophil elastase (Test Example 1; fluorogenic substrate MeOSuc-AAPV-AMC, buffer with 2M NaCl, 0.002% Brij-35)
Format: biochemical
Details: 37° C., read-out: IC50 value (compound concentration required for 50% inhibition of human neutrophil elastase)
Experimental: Assay buffer (0.4 unit/ml HNE (human neutrophil elastase, available from Elastin Products Company), 200 mM HEPES [N-(2-hydroxyethyl)piperazine-N′-(2-ethanesulfonic acid)], pH 7.5, 2M NaCl, 0.002% Brij-35) 100 μl, water for injection 40 μl and DMSO (dimethyl sulfoxide) solution of the present compound 20 μl were mixed in a 96 well plate and the mixed solutions were pre-incubated at 37° C. for five minutes. […]
experimentalReadout: IC50 (µM)

// below: answered molecules
>>> df
                             compoundstring  measvalue
0  CCCn1c(=O)c(-c2ccnn2-c2ccc(C#N)cc2)c(N)n(-c2cccc([N+](=O)[O-])c2)c1=O      0.159
1  Cc1c(-c2cccnc2-c2ccc(C#N)cc2)c(=O)n(C)c(=O)n1-c1cccc(C(F)(F)F)c1      0.074
2  Cc1c(-c2ccnn2-c2ccc(C#N)cc2)c(=O)n(C)c(=O)n1-c1cccc([N+](=O)[O-])c1      0.047
3  Cc1c(-c2ccnn2-c2ccc(C#N)cc2)c(=O)n(CCCC(=O)N(C)C)c(=O)n1-c1cccc(C(F)(F)F)c1      0.616
4  Cc1c(-c2ccnn2-c2ccc(C#N)cc2)c(=O)n(C)c(=O)n1-c1cccc(C(=O)O)c1       12.2

(1) Cc1c(-c2ccnn2-c2ccc(C#N)cc2)c(=O)n(C)c(=O)n1-c1cccc(C(=O)N(C)C)c1
(2) CCCn1c(=O)c(-n2cnnc2-c2ccc(C#N)cc2)c(C)n(-c2cccc(C(F)(F)F)c2)c1=O
Ask: Look at 1 and 2 . Which one has the lower recorded IC50 number? Answer by quoting the chosen item's label.
Reply: 2
(2: 0.068 µM, 1: 13.9 µM)

----------
Biological target: human neutrophil elastase (Homo sapiens, UniProt P08246)
Construct: purchased Elastin Products Company
Test: Inhibitory action against human neutrophil elastase (Test Example 1; fluorogenic substrate MeOSuc-AAPV-AMC, buffer with 2M NaCl, 0.002% Brij-35)
Type: biochemical
Settings: at 100 μM
experimentalReadout: Inhibition ratio (%)

Answered examples (2):
>>> print(df.to_string())
                                   compound   experimentalreadout  measvalue
0  COC(=O)c1cccc(-n2c(C)c(-c3ccnn3-c3ccc(C#N)cc3)c(=O)n(C)c2=O)c1 [Example 32]  Inhibition ratio (%)         50
1  Cc1c(-c2ccnn2-c2ccc(C#N)cc2)c(=O)n(C)c(=O)n1-c1ccc(C(F)(F)F)cc1 [Example 16]  Inhibition ratio (%)         90

(A) Cc1c(-c2ccnn2-c2cccc(C#N)c2)c(=O)n(C)c(=O)n1-c1cccc(C(F)(F)F)c1 [Example 35]
(B) Cc1c(-c2ccnn2-c2ccc(C#N)cc2)c(=O)n(C)c(=O)n1-c1ccccc1C(F)(F)F [Example 15]
Ask: Among A and B , which shows a numerically higher Inhibition ratio (%) result? # respond with the chosen item's label
Reply: B

----------
Biological target: human neutrophil elastase (Homo sapiens)
Construct: purchased Elastin Products Company
Test: Inhibitory action 2 against human neutrophil elastase (Test Example 2; fluorogenic substrate MeOSuc-AAPV-AMC, buffer with 400 mM NaCl, 0.2 mg/ml BSA)
Assay type: biochemical
Conditions: 37° C., read-out: IC50 value (compound concentration required for 50% inhibition of human neutrophil elastase)
experimentalReadout: IC50 (nM)

In [3]: df
Out[3]:
                                   compound                               studytarget  experimentalreadout  measurementunit  measvalue
0  CCCN1CCC(n2c(=O)c(-c3ccnn3-c3ccc(C#N)cc3)c(C)n(-c3cccc(C(F)(F)F)c3)c2=O)C1 (stereo not shown) [Example 343]  human neutrophil elastase (Homo sapiens)                 IC50               nM        7.3

(a) Cc1c(-c2c(C(=O)N(C)C)cnn2-c2ccc(C#N)cc2)c(=O)n(C(C)C)c(=O)n1-c1cccc(C(F)(F)F)c1 [Example 153]
(b) Cc1c(-c2c(C#N)cnn2-c2ccc(C#N)cc2)c(=O)n(C)c(=O)n1-c1cccc(C(F)(F)F)c1 [Example 363]
Ask: Hi team, can someone confirm which has the larger IC50: a or b ? Thanks. Indicate your choice by writing its label.
Reply: b
(b: 19.1 nM, a: 5.4 nM)

----------
Molecular target: human neutrophil elastase (Homo sapiens)
Construct: purchased Elastin Products Company
Assay: Inhibitory action 2 against human neutrophil elastase (Test Example 2; fluorogenic substrate MeOSuc-AAPV-AMC, buffer with 400 mM NaCl, 0.2 mg/ml BSA)
Format: biochemical
Conditions: 37° C., read-out: IC50 value (compound concentration required for 50% inhibition of human neutrophil elastase)
experimentalReadout: IC50 (µM)

Examples with answers:
>>> print(df.to_string())
                                   compound  measurementunit  measvalue
0  Cc1c(-c2ccnn2-c2ccc(C#N)cc2)c(=O)n(C2CCN(C(=O)C(C)(C)O)CC2)c(=O)n1-c1cccc(C(F)(F)F)c1               µM     0.0081
1  Cc1c(-c2ccnn2-c2ccc(C#N)cc2)c(=O)n([C@H](C)CS(C)(=O)=O)c(=O)n1-c1cccc(C(F)(F)F)c1               µM     0.0123

(I) Cc1c(-c2c(C(=O)OCCCCN(C)C)cnn2-c2ccc(C#N)cc2)c(=O)n(C)c(=O)n1-c1cccc(C(F)(F)F)c1
(II) Cc1c(-c2ccnn2-c2ccc(C#N)cc2)c(=O)n(C(C)C(=O)N2CC(O)C2)c(=O)n1-c1cccc(C(F)(F)F)c1 (centres unmarked)
(III) CCNC(=O)NS(=O)(=O)c1cnn(-c2ccc(C#N)cc2)c1-c1c(C)n(-c2cccc(C(F)(F)F)c2)c(=O)n(C)c1=O
(IV) Cc1c(-c2ccnn2-c2ccc(C#N)cc2)c(=O)n(C(C)C)c(=O)n1-c1cccc(C(F)(F)F)c1
(V) CCn1c(=O)c(-c2c(C3(N)CCC3)cnn2-c2ccc(C#N)cc2)c(C)n(-c2cccc(C(F)(F)F)c2)c1=O
Ask: Put the items in order so that reported IC50 rises from first to last. I'd appreciate it if you listed the labels in the requested order.
Reply: IV, III, II, I, V
(IV: 0.0035 µM, III: 0.0077 µM, II: 0.0128 µM, I: 0.0194 µM, V: 0.0427 µM)

(a) Cc1c(-c2c(N3CCOCC3)cnn2-c2ccc(C#N)cc2)c(=O)n(C)c(=O)n1-c1cccc(C(F)(F)F)c1
(b) Cc1c(-c2c(C(=O)N3CCCC3)cnn2-c2ccc(C#N)cc2)c(=O)n(C)c(=O)n1-c1cccc(C(F)(F)F)c1
(c) Cc1c(-c2c(Cl)cnn2-c2ccc(C#N)cc2)c(=O)n(C(C)C(N)=O)c(=O)n1-c1cccc(C(F)(F)F)c1 (centres unmarked)
(d) Cc1cccc(-n2c(C)c(-c3ccnn3-c3ccc(C#N)cc3)c(=O)n(C)c2=O)c1
Ask: Falling order of IC50, please. Enter labels, ranked according to the request.
Reply: d, a, b, c
(d: 0.0642 µM, a: 0.0242 µM, b: 0.0126 µM, c: 0.0063 µM)

(P) Cc1c(-c2c(S(C)(=O)=O)cnn2-c2ccc(C#N)cc2)c(=O)n(C)c(=O)n1-c1cccc(C(F)(F)F)c1 [Example 265]
(Q) CC(=O)N1CCC(n2c(=O)c(-c3c(F)cnn3-c3ccc(C#N)cc3)c(C)n(-c3cccc(C(F)(F)F)c3)c2=O)CC1
(R) Cc1c(-c2c(S(N)(=O)=O)cnn2-c2ccc(C#N)cc2)c(=O)n(C)c(=O)n1-c1cccc(C(F)(F)F)c1 (single isomer, unassigned) [Example 209]
Ask: Ordering criterion: IC50; begin with the maximum. Thanks in advance for listing the labels in the requested order.
Reply: P, Q, R

(1) COC(=O)c1cnn(-c2ccc(C#N)cc2)c1-c1c(C)n(-c2cccc(C(F)(F)F)c2)c(=O)n(C)c1=O
(2) Cc1c(-c2c(S(C)(=O)=O)cnn2-c2ccc(C#N)cc2)c(=O)n(C)c(=O)n1-c1cccc(C(F)(F)F)c1 (single isomer, unassigned) [Example 267]
(3) Cc1c(-c2c(S(=O)(=O)NC(=O)C3CCCCC3)cnn2-c2ccc(C#N)cc2)c(=O)n(C)c(=O)n1-c1cccc(C(F)(F)F)c1
Ask: Arrange items by their IC50 values in increasing order. # the answer lists labels in the order requested
Reply: 3, 2, 1
(3: 0.0072 µM, 2: 0.0116 µM, 1: 0.0186 µM)
